- system.name: 53BP1 Tudor W1495A (H. sapiens, UniProt Q12888 1484-1603, W1495A)
- Sequence (Q12888 other isoform, or with tags, fused parts or gaps W1495A | W1495A): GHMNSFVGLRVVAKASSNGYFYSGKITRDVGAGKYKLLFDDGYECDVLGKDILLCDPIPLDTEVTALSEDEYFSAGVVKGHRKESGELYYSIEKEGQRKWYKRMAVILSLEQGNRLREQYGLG
- assay.summary: ITC
pKd: −log10 of the molar value. Where no end group is shown, it is not given here. Me2 = dimethyl-lysine
value.type: pKd

Using the record for KRHRK(Me2)VLRDN [H4K20me2] , state its measured pKd. < 2.82

Taken from paper PMC5974088.
